targetUnderTest: T1, human FcRn/b2M (human, UniProt P61769 21-119, biotinylated)
T1 construct: bought recombinant biotinylated protein (ACRO FCM-H82W4 or Immunitrack ITF01); also called hFcRn; hFcRn/hb2M
T1 sequence (chain, as listed by the source limits assumed, chain 1 of 2): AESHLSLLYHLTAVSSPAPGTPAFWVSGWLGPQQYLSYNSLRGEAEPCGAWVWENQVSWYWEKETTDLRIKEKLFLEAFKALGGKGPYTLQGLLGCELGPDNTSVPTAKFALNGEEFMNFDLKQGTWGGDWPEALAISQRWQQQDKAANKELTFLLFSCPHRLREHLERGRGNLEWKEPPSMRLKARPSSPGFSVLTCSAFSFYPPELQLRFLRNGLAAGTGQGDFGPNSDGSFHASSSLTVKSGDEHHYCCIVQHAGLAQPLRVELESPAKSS
T1 sequence (P61769 21-119 limits assumed, chain 2 of 2): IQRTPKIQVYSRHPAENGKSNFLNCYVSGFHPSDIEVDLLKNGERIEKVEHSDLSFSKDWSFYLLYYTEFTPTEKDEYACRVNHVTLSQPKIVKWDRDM
assayComment: SPR off-rate; pH 7.4 vs pH 6.0;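 also: surface plasmon resonance with diluted periplasmic extracts flowed over ligand surfaces, 120 s association and 600–3600 s dissociation at 25 °C, running buffer containing 150 mM NaCl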
Measured kd ratio pH 7.4/6.0 values are reported for all entries that follow.
// no unit string in output, number only

Previously resolved entries follow.
>>> result("T0263018B11 A33T (VHH, name in Kabat numbering, FLAG3-His6 tagged) VHH: EVQLVESGGGVVQPGGSLRLSCAASGFTFSSYTMYWVRQAPGKGLEWVSAISSGGGSTDYADSVKGRFTISRDNSKNTLYLQMNSLRPEDTALYYCAADTLYTSLTWYSYWGQGTLVTVSS")
36
>>> result("T0263018B11 Y32T (VHH, name in Kabat numbering, FLAG3-His6 tagged) VHH: EVQLVESGGGVVQPGGSLRLSCAASGFTFSSTAMYWVRQAPGKGLEWVSAISSGGGSTDYADSVKGRFTISRDNSKNTLYLQMNSLRPEDTALYYCAADTLYTSLTWYSYWGQGTLVTVSS")
42
>>> result("T0263018B11 A33G (VHH, name in Kabat numbering, FLAG3-His6 tagged) VHH: EVQLVESGGGVVQPGGSLRLSCAASGFTFSSYGMYWVRQAPGKGLEWVSAISSGGGSTDYADSVKGRFTISRDNSKNTLYLQMNSLRPEDTALYYCAADTLYTSLTWYSYWGQGTLVTVSS")
26

Pending binder:
Incoming: Give recorded kd ratio pH 7.4/6.0. T0263018B11 Y32S (VHH, name in Kabat numbering, FLAG3-His6 tagged) VHH: EVQLVESGGGVVQPGGSLRLSCAASGFTFSSSAMYWVRQAPGKGLEWVSAISSGGGSTDYADSVKGRFTISRDNSKNTLYLQMNSLRPEDTALYYCAADTLYTSLTWYSYWGQGTLVTVSS
Outgoing: 35
